Assay: Drug metabolism assessed as trypsin (unknown origin)-mediated digestion by measuring compound remaining at 0.09 uM after 60 mins by HPLC analysis
Assay type: ADME
Conditions: human, read-out: Stability
*1 amine or outer side, *2 acyl side, *3 side chain or, on linkers, in order; H or OH if unused. Where a SMILES comes first, the peptide text is derived from it. Bridges are numbered along the chain shown (N, C = ends). [ ]: non-standard residue; d: D form. Nle(6-ylidene) = O=C([C@H](CCCC=[*:3])N[*:1])[*:2]; S5 = C=CCCC[C@](C)(N)C(=O)O
parameter measured: remaining at 1 h, 0.09 µM

Problem: Quick check: remaining at 1 h, 0.09 µM of CC(=O)N[C@H](C(=O)N[C@@H](CC(C)C)C(=O)N[C@@H](CCCCN)C(=O)N[C@@H](CCC(N)=O)C(=O)N[C@@H](Cc1ccccc1)C(=O)N[C@@]1(C)CCC/C=C\CCC[C@@H](C(=O)N[C@@H](CCCCN)C(=O)N[C@@H](Cc2c[nH]c3ccccc23)C(=O)N[C@@H](CC(C)C)C(=O)N[C@H](C(=O)N[C@@H](CCCCN)C(N)=O)C(C)C)NC(=O)[C@H](C(C)C)NC(=O)CNC(=O)[C@H](CCCCN)NC1=O)[C@@H](C)O (Ac-TLKQF[S5]KGV[Nle(6-ylidene)]KWLVK-NH2; staple (Z) 6-10) ?
Solution: > 90%
